Data credit: a melting point compilation (Tetko et al.; mined from patent text by program, amines drawn as free bases though some values may be those of a salt)

Measured melting point of individual entries

Cc1oc2ccc(Br)cc2c(=O)c1-c1ccccc1
119 to 121 °C
Nc1cc(Cl)cc(Cl)c1C(=O)NCc1cccc(Br)c1
157 to 159 °C
CN1c2cc(Cl)ccc2-c2nc3ccccc3c3cccc1c23
272 to 274 °C
CCCN=C(N)Nc1ccnc(CCCCc2c[nH]cn2)n1
172 to 174 °C
c1csc(-c2cnc(-c3cccs3)s2)c1
93 to 93.8 °C

# next compound below
input: Name the recorded melting point of the compound listed here: "CC(C)OC(=O)Nc1ccc(NC=O)c([N+](=O)[O-])c1"
output: 168 to 170 °C

###

test readout: melting point

C=CC(=O)Nc1ccc2ncnc(Nc3ccc(OCc4ccccc4)cc3)c2c1
227 to 229 °C
CC(=O)ON=C(O)c1cc(C(O)=NCCO)c(C(=O)O)cc1C(=O)O
194 to 195 °C
Cc1nn(-c2cc(Nc3ccc(N)cc3)c(Cl)cc2Cl)c(=O)n1C(F)F
196 to 197 °C
CCn1ncc2c1ncc1c(NC)nc3cc(C)nn3c12
254 to 255 °C
O=C(O)Cn1cccc(OCc2ccccc2)c1=O
176 to 177 °C
COc1cccc(CN2CCC(NC(=O)c3cnc4c(OC)cccc4c3Nc3ccc(C(=O)NC4CCN(Cc5ccccc5)CC4)cc3)CC2)c1
135 to 142 °C
O=C(O)c1c2n(c3cc(N4CCN(CCO)CC4)c(F)cc3c1=O)CCS2
256 °C
NC(=O)CNC(=O)c1cccc(-c2cccc3c(F)c(Cc4cccc(C(F)(F)F)c4)sc23)c1
127 to 128 °C

input: Provide measured melting point value, entry: "CCCOc1ccc(S(=O)(=O)N2CCNCC2)cc1-c1cc2c(=O)n(C)c(=O)n(CCC)c2[nH]1"
output: 237 °C

input: Output melting point of "C=C(C)C(=O)N=c1ccn(-c2ccccc2)nc1"
output: 136 °C

input: Supply melting point value. Item: "O=C(O)c1[nH]c2cc(Cl)cc(Cl)c2c1C=C1CON(c2ccccc2)C1=O"
output: > 250 °C

input: Determine from records and report melting point for "Cc1cnc2c([N+](=O)[O-])ccc(Cl)c2c1Cl"
output: 136 to 138 °C

input: Provide one value: measured melting point of Cc1ccnc2c1nc(COc1ccc(CC3SC(=O)NC3=O)cc1)n2C (stereo unspecified)
output: 205 to 207 °C

###

// values below are reported melting point

Before answering, review these 3 worked examples.
O=C(O)c1ccc(NC(=O)c2ccc3c(c2)SCCCC3)cc1
261 to 262 °C
CNc1ncc2c(-c3cccc(Cl)c3)cc(/C=C/C(=O)O)c(OC)c2n1
291 to 295 °C
CCOC(=O)Nc1ccc(OC)cc1C(C)=O
97 to 100 °C

input: Kindly indicate its recorded melting point. Item: "COc1ccc(N2C(=O)NC3(CCOCC3)C2=O)cc1"
output: 253 to 254 °C

input: Please report melting point for the following compound: "Cc1[nH]ncc1C(=O)Nc1ccc(OCC(C)(C)C)c(C#N)c1"
output: 133 to 134 °C

input: Please look at this compound and report its melting point: "CCCCc1nc(Cl)c(C=O)n1Cc1ccc2oc(-c3ccccc3C#N)c(OC)c2c1"
output: 118 to 120 °C

###

Measured melting point, listed per entry.

C=CCN1C2CCC1C1CCC2N1C(c1ccc(C(=O)NC2CCCCC2)cc1)c1cccc(OC)c1 (stereo not given)
58 to 60 °C
O=S(=O)(c1ccc(Cl)cc1)N1CCCC1c1ccc(C(F)(F)F)cc1 (racemic)
107 °C
COc1ccc(-c2cc(=O)n(CC(C)C)nc2-c2ccc(OC)c(F)c2)cc1
86.8 to 87.4 °C
Cc1c(C#N)sc2nc(-c3ccncc3)nc(N3CCOCC3)c12
> 250 °C

input: Respond only with melting point recorded for COC(=O)C1Oc2ccccc2Cc2cccc(C)c2O1 (stereo not given)
output: 104 to 105 °C

###

// melting point lookup, one value per entry

// worked examples, melting point included
CCC1NC(=O)C2=C1c1ccc(Cl)cc1C(c1ccccc1Cl)=NC2 (stereo unspecified)
233 to 235 °C
CC(C)(C)OC(=O)CCC1CC(O)C(=O)N1 (stereo unspecified)
94 to 95 °C
O=c1[nH]ccn1-c1ccc(F)cc1F
192 to 194 °C

input: Please give measured melting point of the following entry: C#CC1(O)CCC2C3C(C)CC4=CC(=O)CCC4C3CCC21CC (stereo unspecified)
output: 182 to 184 °C

input: Provide only the value of recorded melting point for CCOC(=O)C1=C(COCC2(C)CO2)NC(C)=C(C(=O)OC)C1c1cccc(Cl)c1Cl (stereo unspecified)
output: 107 to 112 °C

input: // Input: COc1ccc(Cc2c(NC(C)C(C)(C)C)c(=O)c2=O)cc1 (stereo unspecified) . Output its melting point only.
output: 137 to 138 °C

###

Recorded melting point for the following compounds

Some solved cases for reference:
COc1cccc(NC(=O)NC2N=C(c3ccccc3)c3ccccc3N(CCN(C)C)C2=O)c1 (stereo not given)
213 to 215 °C
N#CCC1COc2ccccc2C1 (stereo not given)
54 to 55.5 °C
CC(C)Cn1c(=O)n(C)c(=O)c2c(SCCCO)c(Cc3cccnc3)sc21
119 to 121 °C
CNC(=O)C(C(F)F)C(C)(C)C=NO (stereo not given)
53 to 58 °C

input: Please report melting point for the following compound: "COc1cccc(C=C2C(=O)NC(=O)N2C)c1"
output: 195 to 197 °C

input: Give me measured melting point, please, for this compound: "O=Cc1c(F)ccc(Cl)c1Cl"
output: 55 to 57 °C

input: Tell me measured melting point for "COc1ccc(CCc2ccncc2NC(=O)NCc2ccccc2)cc1OC1CCCC1" please.
output: 152 to 154 °C

input: Fill in melting point for record "CCCCc1nc(CO)c(C(=O)ON2C(=O)CCC2=O)n1Cc1ccc(-c2ccccc2C(=O)OC(C)(C)C)cc1"
output: 107 to 109 °C

###

Examples of molecules with documented melting point follow.

Observe how each entry below is paired with its result.
O=S1(=O)c2cccc3cccc(c23)N1CCCN1CCN(c2ccccc2)CC1
126 °C
CN(N=Cc1ccccc1C(=O)O)c1nc2ccccc2o1
253 to 255 °C
CN(CCO)Cc1cc(C(=O)c2ccccc2)cc(C(C)(C)C)c1O
118 to 119 °C

input: Tell me measured melting point for CCC(=O)NCCC1CCc2c(F)cc3nn(C)cc3c21 (stereo not given) please.
output: 117 to 119 °C

input: # return recorded melting point for input "COc1cccc(N2CCN(C(=O)Oc3ccc(Oc4ccc(C(F)(F)F)cn4)cc3)CC2)c1"
output: 109 to 111 °C

###

# melting point per record follows

Recorded results for 4 compounds are shown here.
CC(C)(C)CC(C)(C)c1ccc(OCCOCCO)c(O)c1
112 to 113 °C
NC(=O)c1ccc(F)c2c1CC(N(CCc1c[nH]c3ccc(F)cc13)CC1CC1)CO2 (stereo not given)
132 °C
O=C(O)C(=O)c1ccc(CCCNC(=O)c2ccc3ccccc3c2)cc1
126 to 128 °C
c1ccc(Cn2cc(-c3ncc(-c4ccc5cc(OCc6nnn[nH]6)ccc5c4)o3)c3ccccc32)cc1
244 to 246 °C

As a next step, examine the compound that follows.
input: For "COc1ccc(C(=O)Nc2c(Cl)cncc2Cl)c2[nH]cnc12" , write its melting point.
output: 292 to 293 °C

###

Attribute: melting point

Record excerpt, results attached:
O=[N+]([O-])c1c(C2C=CCCC2)ccnc1Cl (stereo not drawn)
54.5 to 55.4 °C
OC(CCc1cccnc1)CSc1ccc(C2CCCCC2)cc1 (stereo not drawn)
49 °C

input: Give the reported melting point for this compound. "NCc1ccc(-c2csc(N)n2)s1"
output: 189 °C

input: Consider the compound "CCC(=NNC(=O)OC(C)(C)C)c1ccncc1" and give its recorded melting point.
output: 170 °C

input: Supply measured melting point of "N=C(N)Nc1nc(CCCCC(N)=NO)cs1" in your reply.
output: 167 to 168 °C

input: Give reported melting point value for O=c1c(-c2ccccc2Cl)cc2cnc(NC3C4CN(Cc5ccccc5)CC43)nc2n1C1CCNC1 (stereo not drawn)
output: 203 to 206 °C

input: Assign melting point to the following record: "NN1CCN(CCc2c[nH]c3ccccc23)CC1"
output: 115 to 117 °C

###

test readout: melting point

CCOC(=O)c1c(C(F)(F)C(F)(F)F)[nH]c(C(F)(F)C(F)(F)F)c1C(=O)OCC
64.5 to 65.5 °C
CCCCn1nc(C(N)=O)cc1CC
60 to 61 °C
CCN(CC)CCOc1ccc(-c2oc3ccccc3c2C(=O)c2cc(C)c(OC)c(C)c2)cc1
130 to 133 °C
CCOP(=O)(CNC(CCCc1ccccc1)c1cc(C(C)(C)C)c(O)c(C(C)(C)C)c1)OCC (centres undefined)
93 to 94 °C
Cc1ccc(C(=O)NC(N2CCN(c3cccc(F)c3)C2=S)C(Cl)(Cl)Cl)cc1 (centres undefined)
184 to 186 °C
N#CCNC(=O)c1ncn2c1CN(C(=O)N1CCCC1)c1ccccc1-2
241 to 242 °C
Cc1ccc(N(C)S(=O)(=O)c2cccs2)c2[nH]c(C3=NCC(C#N)S3)cc12 (centres undefined)
173 to 174 °C
COc1ccc(-c2nnc(Cl)nc2-c2ccc(OC)cc2)cc1
130 to 132 °C

Now look at this one.
input: Note melting point for the molecule shown: COc1ccc2c(c1)C13CCN(CC4CC4)C(C2)C1(Cc1ccccc1)CCC1(C3)OCCO1 (centres undefined)
output: 165 to 167 °C
